- System: Sporosarcina pasteurii
- measurement protocol: Inhibition of Sporosarcina pasteurii CCM 2056 urease up to 2 mM using urea as substrate pretreated for 60 mins followed by substrate addition after 15 mins by phenol-hypochlorite reagent based colorimetric method
The source made the active and inactive calls. The calls are words filed in the database; no cut-off is given here.
readout type: inhibition

Check out these entries, answers already filled in.
1. CP(=O)(O)C/C(=C\c1ccccc1)C(=O)O inactive
2. COC(=O)/C(=C/c1ccccc1)CP(=O)(O)O inactive
3. O=C(O)/C(=C/c1ccccc1)CP(=O)(O)CO inactive
4. COC(=O)/C(=C/c1ccccc1)CP(C)(=O)O inactive

Read the next record carefully.
The observed inhibition for "COC(=O)/C(=C/c1ccccc1)CP(=O)(O)CN" when tested with Sporosarcina pasteurii stands at inactive

* * *

- System: Sporosarcina pasteurii
- measurement protocol: Ratio of Kinact to Ki for Sporosarcina pasteurii CCM 2056 urease
readout type: Ratio (M⁻¹ s⁻¹)
One number for each entry, in M⁻¹ s⁻¹.

Would you be so kind as to report Ratio for each listed record?
1. C=C(C(=O)OC)C(OC(C)=O)c1ccc(Cl)cc1 (configuration not stated)
2. C=C(C(=O)OC)C(OC(C)=O)c1ccc(NC(C)=O)cc1 (configuration not stated)
3. C=C(C(=O)OC)C(OC(C)=O)c1ccc([N+](=O)[O-])cc1 (configuration not stated)
4. C=C(C(=O)OC)C(OC(C)=O)c1ccc(C)cc1 (configuration not stated)

1: 75.3; 2: 2.78; 3: 2.34; 4: 5.62

Looking up C=C(C(=O)OC)C(OC(C)=O)c1ccc(F)cc1 (configuration not stated) , I found its Ratio recorded as 525
